Assay System: TYK2-JH2 domain (Homo sapiens)
Construct: IC50 on JH2 domain activity (nM)
Sequence (P29597 589-875 limits assumed): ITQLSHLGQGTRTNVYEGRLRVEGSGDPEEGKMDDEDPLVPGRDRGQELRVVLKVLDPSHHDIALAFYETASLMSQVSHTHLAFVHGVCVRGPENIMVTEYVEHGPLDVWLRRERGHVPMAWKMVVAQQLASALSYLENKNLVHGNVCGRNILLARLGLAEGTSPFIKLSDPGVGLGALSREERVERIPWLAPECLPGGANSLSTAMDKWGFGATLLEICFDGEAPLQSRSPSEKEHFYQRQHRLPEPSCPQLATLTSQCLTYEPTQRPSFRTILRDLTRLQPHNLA
Assay Info: Binding activity test for JH2 domain of TYK2 (Tb-antibody/tracer FRET)
Experimental: Binding Activity Test for […] Domain of JAK1 and TYK2 The compounds are prepared in DMSO for 200× top dose, then serial dilute it with 27-fold for 3 more points. Add 8 μL/well in echo source plate, echo will add 75 nL/well with 3-fold serial dilution for 11 points in assay plate. 75 nL DMSO for high control and low control. […] For low control, add 5 μL/well assay buffer. […] Read by envision in FRET mode. The Luminescence value was recorded by a multi-label reader Envision (PerkinElmer).
Measurement Type: pIC50
Give only the number. pIC50 is defined as minus log10 of concentration in molar units.

The examples below pair each entry with its known result.
[
  {
    "Molecule": "[2H]C([2H])([2H])NC(=O)c1cnc(NC(=O)C2CC2)cc1Nc1cn(C)c2ccn(C(C)C(F)(F)F)c(=O)c12 (stereo not shown) [Example 190]",
    "Test Result": 8.39
  },
  {
    "Molecule": "[2H]C([2H])([2H])NC(=O)c1cnc(NC(=O)C2CC2)cc1Nc1ccn2ncc(C(C)C#N)c2c1OC (single isomer, unassigned) [Example 251A]",
    "Test Result": 8.99
  },
  {
    "Molecule": "[2H]C([2H])([2H])NC(=O)c1cnc(NC(=O)CC)cc1Nc1ccc2cnn(CC)c2c1OC",
    "Test Result": 8.77
  },
  {
    "Molecule": "[2H]C([2H])([2H])NC(=O)c1cnc(NC(=O)C2CC2)cc1Nc1cnc2cnn(CC)c2c1OC",
    "Test Result": 7.16
  },
  {
    "Molecule": "[2H]C([2H])([2H])NC(=O)c1cnc(NC(=O)C2CC2)cc1Nc1cn(CC(F)(F)F)c2ccn(CC)c(=O)c12",
    "Test Result": 9.80
  }
]

Looking for the measured pIC50 of `[2H]C([2H])([2H])NC(=O)c1cnc(NC(=O)C2CC2)cc1Nc1ccn2ncc(C)c2c1OC` , can you help?
9.51

Looking for the measured pIC50 of [2H]C([2H])([2H])NC(=O)c1cnc(NC(=O)C2CC2)cc1Nc1ccn2ncc(C(C)C(N)=O)c2c1OC (stereo not shown) , can you help?
8.77

Where do the numbers come from? From patent US20250115597A1.
